These entries and their values trace back to patent US20100056596A1.

// reported Ki per item
# experimental.target: HIV-1 protease Mutant 8 (Human immunodeficiency virus type 1)
# procedure.summary: Ki against HIV-1 protease Mutant 8
# Format: biochemical
# condition.set: HIV-1 protease Mutant 8
experimental.endpoint: Ki

{"compound": "CC(C)CN(CC(O)C(Cc1ccccc1)NC(=O)OC1COC2OCCC12)S(=O)(=O)c1ccc2onc(CNC(=O)C(F)(F)F)c2c1 (stereo not drawn)", "experimental.target": "HIV-1 protease Mutant 8 (Human immunodeficiency virus type 1)", "experimental.endpoint": "Ki", "measurement": "< 0.3 nM"}
{"compound": "CC(C)CN(CC(O)C(Cc1ccccc1)NC(=O)OC1COC2OCCC12)S(=O)(=O)c1ccc2onc(CSC(C)C)c2c1 (stereo not drawn)", "experimental.target": "HIV-1 protease Mutant 8 (Human immunodeficiency virus type 1)", "experimental.endpoint": "Ki", "measurement": "< 0.3 nM"}
{"compound": "CCCCNCc1noc2ccc(S(=O)(=O)N(CC(C)C)CC(O)C(Cc3ccccc3)NC(=O)OC3COC4OCCC34)cc12 (stereo not drawn)", "experimental.target": "HIV-1 protease Mutant 8 (Human immunodeficiency virus type 1)", "experimental.endpoint": "Ki", "measurement": "< 0.3 nM"}

---

# experimental.target: wild type HIV-1 protease (Human immunodeficiency virus type 1 group M subtype B, UniProt P04585)
# Construct: over 45 of the 99 amino acids of the HIV protease monomer
# procedure.summary: Ki against wild type (WT) HIV-1 protease
# Format: biochemical
# condition.set: WT
Collected Ki values appear next to each entry.
experimental.endpoint: Ki

{"molecule": "CC(C)CN(C[C@@H](O)[C@H](Cc1ccccc1)NC(=O)OC1COC2OCCC12)S(=O)(=O)c1ccc2occ(CNC(=O)c3ccco3)c2c1 (stereo partly drawn)", "experimental.endpoint": "Ki", "measurement": "< 100 pM"}
{"molecule": "CC(C)CN(C[C@@H](O)[C@H](Cc1ccccc1)NC(=O)OC1COC2OCCC12)S(=O)(=O)c1ccc2occ(CN3CCOCC3)c2c1 (stereo partly drawn)", "experimental.endpoint": "Ki", "measurement": "< 100 pM"}
{"molecule": "Cc1cc2cc(S(=O)(=O)N(CC(C)C)CC(O)C(Cc3ccccc3)NC(=O)OC3COC4OCCC34)ccc2o1 (stereo not drawn)", "experimental.endpoint": "Ki", "measurement": "< 100 pM"}

---

Recorded measurements of log10 of IC50, one per entry
# System: HIV-1 isolates, WT
# procedure.summary: In vitro drug sensitivity of HIV-1 laboratory isolates, WT
# Type: cell-based
# condition.set: Human immunodeficiency virus 1; HIV-1 isolate WT
experimental.endpoint: log10 of IC50 (log10 of the value in nM)

{"compound": "CC(C)CN(CC(O)C(Cc1ccccc1)NC(=O)OC1COC2OCCC12)S(=O)(=O)c1ccc2onc(COC(=O)C(C)(C)C)c2c1 (stereo not drawn)", "log10 of IC50": 1.04}
{"compound": "CCCOC(=O)NCc1noc2ccc(S(=O)(=O)N(CC(C)C)CC(O)C(Cc3ccccc3)NC(=O)OC3COC4OCCC34)cc12 (stereo not drawn)", "log10 of IC50": 0.48}
{"compound": "CC(C)CN(CC(O)C(Cc1ccccc1)NC(=O)OC1COC2OCCC12)S(=O)(=O)c1ccc2onc(CO)c2c1 (stereo not drawn)", "log10 of IC50": 0.85}
{"compound": "CC(C)CN(CC(O)C(Cc1ccccc1)NC(=O)OC1COC2OCCC12)S(=O)(=O)c1ccc2onc(CNS(=O)(=O)C(C)C)c2c1 (stereo not drawn)", "log10 of IC50": 0.81}
{"compound": "CC(C)CN(CC(O)C(Cc1ccccc1)NC(=O)OC1COC2OCCC12)S(=O)(=O)c1ccc2onc(CNCCCN3CCCC3=O)c2c1 (stereo not drawn)", "log10 of IC50": 1.49}
{"compound": "CC(C)CN(CC(O)C(Cc1ccccc1)NC(=O)OC1COC2OCCC12)S(=O)(=O)c1ccc2onc(COC(=O)C(C)C)c2c1 (stereo not drawn)", "log10 of IC50": 1.04}
{"compound": "CC(C)CN(CC(O)C(Cc1ccccc1)NC(=O)OC1COC2OCCC12)S(=O)(=O)c1ccc2onc(CN3CCOCC3)c2c1 (stereo not drawn)", "log10 of IC50": 0.48}
{"compound": "CCSCCNCc1noc2ccc(S(=O)(=O)N(CC(C)C)CC(O)C(Cc3ccccc3)NC(=O)OC3COC4OCCC34)cc12 (stereo not drawn)", "log10 of IC50": 0.74}
{"compound": "CCCCNCc1noc2ccc(S(=O)(=O)N(CC(C)C)CC(O)C(Cc3ccccc3)NC(=O)OC3COC4OCCC34)cc12 (stereo not drawn)", "log10 of IC50": 0.63}
{"compound": "CC(C)CN(CC(O)C(Cc1ccccc1)NC(=O)OC1COC2OCCC12)S(=O)(=O)c1ccc2onc(Cn3ccnc3)c2c1 (stereo not drawn)", "log10 of IC50": 1.30}
{"compound": "CC(C)CN(CC(O)C(Cc1ccccc1)NC(=O)OC1COC2OCCC12)S(=O)(=O)c1ccc2onc(CNCc3ccccn3)c2c1 (stereo not drawn)", "log10 of IC50": 0.90}
{"compound": "CC(C)CN(CC(O)C(Cc1ccccc1)NC(=O)OC1COC2OCCC12)S(=O)(=O)c1ccc2onc(CNCCNC(=O)OC(C)(C)C)c2c1 (stereo not drawn)", "log10 of IC50": 0.78}
{"compound": "CC(C)CN(CC(O)C(Cc1ccccc1)NC(=O)OC1COC2OCCC12)S(=O)(=O)c1ccc2onc(CS(C)(=O)=O)c2c1 (stereo not drawn)", "log10 of IC50": 0.91}
{"compound": "CC(C)CN(CC(O)C(Cc1ccccc1)NC(=O)OC1COC2OCCC12)S(=O)(=O)c1ccc2onc(COCC(F)(F)F)c2c1 (stereo not drawn)", "log10 of IC50": 0.43}
{"compound": "COCc1noc2ccc(S(=O)(=O)N(CC(C)C)CC(O)C(Cc3ccccc3)NC(=O)OC3COC4OCCC34)cc12 (stereo not drawn)", "log10 of IC50": 0.61}

---

# Tested on: HIV-1 isolates, Mutant 9
# procedure.summary: In vitro drug sensitivity of HIV-1 laboratory isolates, Mutant 9
# Assay type: cell-based
# condition.set: Mutant 9; read-out: IC50 Mutant 9
Assign labels as follows, please: fulfilled for IC50 below 0.05 µM; not fulfilled for IC50 equal to or exceeding 0.05 µM.

{"molecule": "CC(C)CN(C[C@@H](O)[C@H](Cc1ccccc1)NC(=O)OC1COC2OCCC12)S(=O)(=O)c1ccc2occ(CN3CCOCC3)c2c1 (stereo partly drawn)", "label": "not fulfilled"}
{"molecule": "CCOC(=O)NCc1coc2ccc(S(=O)(=O)N(CC(C)C)C[C@@H](O)[C@H](Cc3ccccc3)NC(=O)OC3COC4OCCC34)cc12 (stereo partly drawn)", "label": "fulfilled"}
{"molecule": "CC(C)CN(C[C@@H](O)[C@H](Cc1ccccc1)NC(=O)OC1COC2OCCC12)S(=O)(=O)c1ccc2occ(CNC(=O)c3ccco3)c2c1 (stereo partly drawn)", "label": "fulfilled"}
{"molecule": "CCOC(=O)N(CCOC)Cc1coc2ccc(S(=O)(=O)N(CC(C)C)C[C@@H](O)[C@H](Cc3ccccc3)NC(=O)OC3COC4OCCC34)cc12 (stereo partly drawn)", "label": "not fulfilled"}
{"molecule": "CC(C)CN(C[C@@H](O)[C@H](Cc1ccccc1)NC(=O)OC1COC2OCCC12)S(=O)(=O)c1ccc2occ(CNC(=O)c3cccnc3)c2c1 (stereo partly drawn)", "label": "fulfilled"}

---

# experimental.target: HIV-1 protease Mutant 9 (Human immunodeficiency virus type 1, UniProt P04585)
# procedure.summary: Ki against HIV-1 protease Mutant 9
# Format: biochemical
# condition.set: Mutant 9
pKi: −log10 of the molar value.

{"compound": "CC(C)CN(CC(O)C(Cc1ccccc1)NC(=O)OC1COC2OCCC12)S(=O)(=O)c1ccc2occc2c1 (stereo not drawn)", "pKi": 9.30}
{"compound": "CCC(CC)Nc1n[nH]c2ccc(S(=O)(=O)N(CC(C)C)CC(O)C(Cc3ccccc3)NC(=O)OC3COC4OCCC34)cc12 (stereo not drawn)", "pKi": 9.26}
{"compound": "CCCNc1n[nH]c2ccc(S(=O)(=O)N(CC(C)C)CC(O)C(Cc3ccccc3)NC(=O)OC3COC4OCCC34)cc12 (stereo not drawn)", "pKi": 9.18}
{"compound": "CC(C)CN(CC(O)C(Cc1ccccc1)NC(=O)OC1COC2OCCC12)S(=O)(=O)c1ccc2[nH]nc(NC3CCCCC3)c2c1 (stereo not drawn)", "pKi": 9.03}
{"compound": "CC(C)CN(CC(O)C(Cc1ccccc1)NC(=O)OC1COC2OCCC12)S(=O)(=O)c1ccc2oc(CN)cc2c1 (stereo not drawn)", "pKi": 8.72}
{"compound": "CC(C)CN(CC(O)C(Cc1ccccc1)NC(=O)OC1COC2OCCC12)S(=O)(=O)c1ccc2occ(CNC(=O)C[S+]([O-])Cc3ccccc3)c2c1 (stereo not drawn)", "pKi": 9.66}
